- Test system: velvetleaf (Abutilon theophrasti)
- method: Example 19, Procedure II: Herbicide No. 1 + ERADICANE EXTRA with added antidotes
- Type: in vivo
- measurement parameters: Herbicide No.1 0.56 kg/ha + ERADICANE EXTRA 8.96 kg/ha; antidote 2.24 kg/ha
readout label: % Injury VL

Example entries and their recorded answers appear below.
O=C(C(Cl)Cl)N1CCOC12CCCCC2 [compound 7] : 75%
C=CCN(CC=C)C(=O)C(Cl)Cl [compound 1] : 70%
CC1(C(Cl)Cl)OCCO1 [compound 13] : 65%

List reported % Injury VL for each of these compounds:
1. O=C1OC(=O)c2cccc3cccc1c23 [compound 2]
2. CC1(C)OC(c2ccco2)CN1C(=O)C(Cl)Cl (centres unmarked) [compound 15]

["75%", "70%"]

###

- System: corn
- method: Example 22: retest of Example 21 at reduced greenhouse temperatures
- Format: in vivo
- measurement parameters: Table 22; Herbicide No.1 1.12 Kg/ha + SUTAN + 8.96 Kg/ha + antidote 8.96 Kg/ha
readout label: % Injury Corn (%)
One number for each entry, in %.

Example entries and their recorded answers appear below.
O=C1OC(=O)c2cccc3cccc1c23 : 50
C=CCN(CC=C)C(=O)C(Cl)Cl : 55
O=C(C(Cl)Cl)N1CCOC12CCCCC2 : 50
CC1(C(Cl)Cl)OCCO1 : 60

// moving on: another record for % Injury Corn
Consider the molecule CC1(C)OC(c2ccco2)CN1C(=O)C(Cl)Cl (centres unmarked) and give its measured % Injury Corn.
45

###

- Tested on: barnyardgrass (Echinochloa crusgalli)
- method: Example 10, Procedure II: Herbicide No. 1 + propachlor (No. 5) with antidotes
- Assay type: in vivo
- measurement parameters: Herbicide No.1 0.14 kg/ha + Herbicide No.5 4.48 kg/ha; antidote rate 2.24 kg/ha
readout label: % Injury BYG (%)
Give bare numbers, in %.

Example entries and their recorded answers appear below.
CC1(C(Cl)Cl)OCCO1 : 98
C=CCN(CC=C)C(=O)C(Cl)Cl : 99
O=C(C(Cl)Cl)N1CCOC12CCCCC2 : 99
O=C1OC(=O)c2cccc3cccc1c23 : 100

// moving on: another record for % Injury BYG
Consider the molecule CC1(C)OC(c2ccco2)CN1C(=O)C(Cl)Cl (centres unmarked) and give its measured % Injury BYG.
98

###

Can you tell me % Injury VL for the items I'm about to list?
- System: velvetleaf (Abutilon theophrasti)
- method: Example 7, Procedure II: Herbicide No. 1 + metolachlor (No. 12) with antidotes
- Format: in vivo
- measurement parameters: Herbicide No.1 0.14 + No.12 3.36 kg/ha + antidote 8.96 kg/ha
- Method: Containers were filled and compacted with a fumigated silt loam top soil to a depth of about 1.3 cm from the top of the container. […] A measured amount of herbicide dispersed or dissolved in acetone was applied to a measured quantity of soil. To this same quantity of soil treated with herbicide, there was added a measured amount of antidote dispersed or dissolved in acetone. […]
Numbers only, in %.

Example entries and their recorded answers appear below.
CC1(C)OC(c2ccco2)CN1C(=O)C(Cl)Cl (centres unmarked) : 65
O=C1OC(=O)c2cccc3cccc1c23 : 75
O=C(C(Cl)Cl)N1CCOC12CCCCC2 : 65
C=CCN(CC=C)C(=O)C(Cl)Cl : 75

// moving on: another record for % Injury VL
Consider the compound `CC1(C(Cl)Cl)OCCO1` and give its measured % Injury VL.
80

Origin of measurements: patent EP0603240B1
